Overview of recorded inhibition for various compounds
Biological target: Serine/threonine-protein kinase MARK1 (Homo sapiens);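 note: reported values are mean percent inhibition of MARK1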
Conditions: at 1 µM
Write it as a number; the unit % goes unstated.

CCS(=O)(=O)c1ccc(OC)c(Nc2ncc(-c3cccc(-c4ccccc4F)c3)o2)c1 = 0.75

Quick check: inhibition of Cc1ccc(C(=O)NC(C)C)cc1-c1ccc(C(=O)NCC2CC2)cc1 ?
0.65

Quick check: inhibition of COc1ccc(-c2ccc3c(NC(=O)C4CC4)n[nH]c3n2)cc1 ?
5.02

Quick check: inhibition of Fc1ccc(-c2ncn(C3CCNCC3)c2-c2ccnc(Oc3ccc(F)c(F)c3)n2)cc1 ?
4.99

Quick check: inhibition of CCc1nccc2c1nc(-c1nonc1N)n2CC ?
1.49

Quick check: inhibition of COc1ccc2cc(-c3c(-c4ccncc4)nc(-c4ccc([S+](C)[O-])cc4C)n3C)ccc2c1 (stereo not given) ?
-1.81

Quick check: inhibition of COc1ccc(C2=C(N3CCc4ccccc43)C(=O)NC2=O)cc1 ?
5.45

Quick check: inhibition of O=C1NC(=O)C(c2cccc(Cl)c2)=C1Nc1ccc(Cl)c(C(=O)O)c1 ?
3.49

Quick check: inhibition of COc1cc(Nc2ncc3c(C)nc(-c4cccc(Oc5ccccc5)c4)n3n2)cc(OC)c1OC ?
6.76

Quick check: inhibition of Fc1ccc(-c2c(-c3ccncc3)nc3n2CCS3)cc1 ?
3.24

Quick check: inhibition of N#Cc1ccc(Oc2nccc(-c3c(-c4ccc(F)cc4)ncn3C3CCNCC3)n2)cc1 ?
3.06

Quick check: inhibition of O=C(Nc1n[nH]c2cc(-c3cc(F)ccc3F)ccc12)C1CC1 ?
5.89

Quick check: inhibition of CN1CCN(CCCNc2nc3ccc(Oc4ccc(NC(=O)Nc5cc(C(F)(F)F)ccc5F)cc4)cc3[nH]2)CC1 ?
0.66

Quick check: inhibition of COC(=O)Nc1nc2ccc(Sc3ccc(NC(=O)Nc4cc(C(F)(F)F)ccc4F)cc3)cc2[nH]1 ?
2.38

Quick check: inhibition of Fc1ccc(-c2ncn(C3CCNCC3)c2-c2ccnc(Oc3ccc4c(c3)OCO4)n2)cc1 ?
5.01

Quick check: inhibition of FC(F)(F)c1cccc(Nc2nccc(-c3cnn4nc(-c5ccccc5)ccc34)n2)c1 ?
2.53

Quick check: inhibition of CN(C)CCOc1ccc(-c2cc(-c3ccc4c(c3)CCC4=NO)c(-c3ccncc3)o2)cc1 ?
1.81

Quick check: inhibition of CCS(=O)(=O)c1ccc(OC)c(Nc2ncc(-c3ccccc3Cl)o2)c1 ?
0.38

====

Target: Rhodopsin kinase GRK7 (Homo sapiens) (UniProt Q8WTQ7);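 note: reported figures are mean percent inhibition of GRK7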
Sequence (Q8WTQ7 whole entry): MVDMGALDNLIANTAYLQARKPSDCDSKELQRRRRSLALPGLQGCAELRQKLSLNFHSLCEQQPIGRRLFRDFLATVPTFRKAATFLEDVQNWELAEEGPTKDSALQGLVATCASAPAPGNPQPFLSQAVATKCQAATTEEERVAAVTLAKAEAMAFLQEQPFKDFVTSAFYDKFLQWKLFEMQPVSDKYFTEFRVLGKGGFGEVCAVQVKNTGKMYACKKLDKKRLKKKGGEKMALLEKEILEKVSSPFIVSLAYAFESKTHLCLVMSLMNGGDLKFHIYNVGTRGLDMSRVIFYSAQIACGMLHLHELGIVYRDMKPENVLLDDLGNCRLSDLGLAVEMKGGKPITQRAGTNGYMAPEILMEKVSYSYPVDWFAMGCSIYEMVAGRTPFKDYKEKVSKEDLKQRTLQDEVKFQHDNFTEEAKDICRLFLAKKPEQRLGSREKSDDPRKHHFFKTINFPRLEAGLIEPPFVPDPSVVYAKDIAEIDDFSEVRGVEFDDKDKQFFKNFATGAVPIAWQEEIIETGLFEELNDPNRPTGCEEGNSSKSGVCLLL
Settings: at 0.1 µM
Overview of recorded inhibition for various compounds
Write the numeric value and append its unit.

NC(=O)Cc1ccccc1Oc1nccc(-c2c(-c3ccc(F)cc3)ncn2C2CCNCC2)n1 = 1%
Fc1ccc(-c2ncn(C3CCNCC3)c2-c2ccnc(Oc3ccc(F)c(F)c3)n2)cc1 = 9.11%
Fc1ccc(-c2ncn(C3CCNCC3)c2-c2ccnc(Oc3ccc(Oc4ccccc4)cc3)n2)cc1 = 10.9%
COc1ccc(C2=C(N3CCc4ccccc43)C(=O)NC2=O)cc1 = 27.9%

Kindly consider the entry below.
Which inhibition is reported with Rhodopsin kinase GRK7 (Homo sapiens) (UniProt Q8WTQ7) for this entry: Cc1ccc(NC(=O)c2ccoc2)cc1-c1ccc(C(=O)NCC2CC2)cc1 ?
3.35%

====

Target: NT-3 growth factor receptor (Homo sapiens);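 note: mean TRKC inhibition from the GSK PKIS kinase inhibitor set, with assays run by Nanosyn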
Settings: at 1 µM
Overview of recorded inhibition for various molecules
Write it as a number; the unit % goes unstated.

NC(=O)Cc1ccccc1Oc1nccc(-c2c(-c3ccc(F)cc3)ncn2C2CCNCC2)n1 = 0.96
Fc1ccc(-c2ncn(C3CCNCC3)c2-c2ccnc(Oc3ccc(Oc4ccccc4)cc3)n2)cc1 = 1.66
COc1cc2ncn(-c3cc(OCc4cccs4)c(C(N)=O)s3)c2cc1OC = 27.2
CNC(=O)c1cncc(/C=C/c2c(C)cccc2C)c1 = 1.16
COc1cc(C)c(N(C)C(=O)CN(C)C)cc1Nc1nc(Nc2cccc(F)c2C(N)=O)c2cc[nH]c2n1 = -1.19
NCc1ccc(-n2c(-c3nonc3N)nc3cnccc32)cc1 = 2.31
O=C(Nc1n[nH]c2cc(-c3cc(F)ccc3F)ccc12)C1CC1 = 14
COc1ccc2cc(-c3c(-c4ccncc4)nc(-c4ccc([S+](C)[O-])cc4C)n3C)ccc2c1 (stereo not given) = 1.56

Which inhibition is reported with NT-3 growth factor receptor (Homo sapiens) for this entry: Cc1ccc(NC(=O)c2ccoc2)cc1-c1ccc(C(=O)NCC2CC2)cc1 ?
0.07

Which inhibition is reported with NT-3 growth factor receptor (Homo sapiens) for this entry: NC(=O)c1ccc(Oc2nccc(-c3c(-c4ccc(F)cc4)ncn3C3CCNCC3)n2)cc1 ?
4.93
